Origin of the recorded values: patent US20180110824A1

# MEASURED ON: human growth hormone secretagogue receptor (hGHS-R1a) (Homo sapiens)
# Construct: purchased PerkinElmer BioSignal #RBHGHSM; host or cells: HEK-293, stably transfected
# Sequence (Q92847 whole entry): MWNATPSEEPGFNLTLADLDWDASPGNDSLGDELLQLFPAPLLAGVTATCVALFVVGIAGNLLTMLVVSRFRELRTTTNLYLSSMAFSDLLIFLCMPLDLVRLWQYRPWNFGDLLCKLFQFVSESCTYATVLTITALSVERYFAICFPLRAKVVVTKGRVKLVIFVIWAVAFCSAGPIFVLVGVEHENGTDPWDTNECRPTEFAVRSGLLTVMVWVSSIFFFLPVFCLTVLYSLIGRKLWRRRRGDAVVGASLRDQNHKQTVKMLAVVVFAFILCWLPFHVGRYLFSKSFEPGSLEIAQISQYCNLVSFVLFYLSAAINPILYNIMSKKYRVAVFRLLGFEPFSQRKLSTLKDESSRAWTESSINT
# PROTOCOL: Competitive radioligand binding assay (ghrelin receptor), [125I]-ghrelin displacement on GHS-R/HEK 293 membranes
# CONDITIONS: Ki (nM), Binding activity at the human ghrelin receptor, [125I]-ghrelin displacement
EXPERIMENTAL READOUT: Ki

Hey, human growth hormone secretagogue receptor (hGHS-R1a) (Homo sapiens) data for CCC(C)[C@@H]1NCCOc2ccccc2CCCNC(=O)[C@@H](Cc2ccc(Cl)cc2)NC(=O)[C@@H](C)N(C)C1=O (stereo partly shown) [compound 25] : Ki came out at 0.1 to 10 nM
